study-system: CK2A1 (CK2α/β) (Homo sapiens)
Sequence (P68400 whole entry, species assumed): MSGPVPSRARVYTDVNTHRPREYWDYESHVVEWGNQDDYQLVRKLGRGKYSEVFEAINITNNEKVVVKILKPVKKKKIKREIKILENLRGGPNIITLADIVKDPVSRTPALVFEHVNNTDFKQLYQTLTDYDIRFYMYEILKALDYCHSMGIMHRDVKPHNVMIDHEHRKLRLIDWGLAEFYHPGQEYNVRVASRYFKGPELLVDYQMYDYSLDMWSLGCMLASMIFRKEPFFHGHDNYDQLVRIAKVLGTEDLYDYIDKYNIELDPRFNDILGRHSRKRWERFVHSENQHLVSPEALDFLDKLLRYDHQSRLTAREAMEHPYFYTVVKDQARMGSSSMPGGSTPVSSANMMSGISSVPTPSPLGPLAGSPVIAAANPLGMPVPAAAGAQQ
Sequence (P67870 whole entry partner, species assumed): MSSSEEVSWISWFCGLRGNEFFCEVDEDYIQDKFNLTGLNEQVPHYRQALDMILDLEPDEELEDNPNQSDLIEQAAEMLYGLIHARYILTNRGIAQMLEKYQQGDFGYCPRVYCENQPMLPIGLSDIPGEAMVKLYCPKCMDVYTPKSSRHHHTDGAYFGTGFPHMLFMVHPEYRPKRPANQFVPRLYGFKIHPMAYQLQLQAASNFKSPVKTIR
assay: CK2 kinase assay, CK2A1 (CK2α/β)
Format: biochemical
stated-conditions: Table A; read-out: CK2A1 (CK2α/β) (IC50)
Counter-ions that a name gives are not always drawn.
Kindly apply the following: met if IC50 is less than 2 nM, not met in every other case.

CCNc1nc(Nc2cc(C#N)cc(N3CC[C@H](NC(=O)OC)[C@H](F)C3)c2Cl)nn2c(C#N)cnc12 [Example 331]; not met
CCNc1nc(Nc2cc(C#N)cc(N3CC[C@@H](NC(=O)OC)[C@H](OC(=O)[C@@H](N)[C@@H](C)O)C3)c2Cl)nn2c(C#N)cnc12 [Example 810, hydrochloride]; not met
CS(=O)(=O)CCN1CC(N2CCN(c3cc(C#N)cc(Nc4nc(NC5CC5)c5ncc(C#N)n5n4)c3Cl)CC2)C1 [Example 70]; met
CCNc1nc(Nc2cc(C#N)cc(N3CC[C@@H](NC(=O)OC)[C@@H](NC4COC4)C3)c2Cl)nn2c(C#N)cnc12 [Example 747]; met
COC(=O)N[C@H]1CCN(c2cc(C#N)cc(Nc3nc(NC4CC4)c4ncc(C#N)n4n3)c2Cl)C[C@@H]1OC(=O)/C=C/C(=O)O [Example 198]; met

Here's the next entry for you.
Here's an entry: CN(CCNC1COC1)c1cc(Cl)c(Nc2nc(NC3CC3)c3ncc(C#N)n3n2)cc1C#N [Example 413] . Is its IC50 below 2 nM? met
